molecular target: HLA-A*02:01 (Homo sapiens, UniProt P04439, D140Y/D185E/D98H/E176V/E277Q/G131W/G231S/I119V/I121R/I166T/I218V/L300P/L318F/N151K/N90K/P208A/P217A/Q86G/Q94H/R138H/R169H/T345S); construct: made in house; experiment: MHC binding assay: UV-ligand exchange with β2m ELISA (peptide exchange yield); conditions: binding to HLA-A*02:01 evaluated by peptide exchange yield (UV-ligand exchange, β2m ELISA)
EXPERIMENTAL_READOUT: Peptide exchange

| SUBSTANCE | MEASUREMENT |
| --- | --- |
| 237 (ALLEQTGDMSL; listed as Homo sapiens) [compound 237] | +++ (≧50 = +++) |
| 49 (KLIGNIHGNEV; listed as Homo sapiens) [compound 49] | ++ (≧20% = ++) |
| 112 (ILAQDVAQL; listed as Homo sapiens) [compound 112] | +++ (≧50 = +++) |
| 42 (KQMSISTGL; listed as Homo sapiens) [compound 42] | ++ (≧20% = ++) |
| 35 (VIIKGLEEI; listed as Homo sapiens) [compound 35] | ++ (≧20% = ++) |
| 267 (YLLDMPLWYL; listed as Homo sapiens) [compound 267] | +++ (≧50 = +++) |
| 258 (QLVQRVASV; listed as Homo sapiens) [compound 258] | ++ (≧20% = ++) |
| 253 (KLLAVIHEL; listed as Homo sapiens) [compound 253] | +++ (≧50 = +++) |
| 34 (TLNTLDINL; listed as Homo sapiens) [compound 34] | +++ (≧50 = +++) |
| 221 (IMLNSVEEI; listed as Homo sapiens) [compound 221] | ++ (≧20% = ++) |
| 58 (HLLGEGAFAQV; listed as Homo sapiens) [compound 58] | +++ (≧50 = +++) |
| 89 (SLAETIFIV; listed as Homo sapiens) [compound 89] | +++ (≧50 = +++) |
| 57 (TLYPGRFDYV; listed as Homo sapiens) [compound 57] | ++ (≧20% = ++) |
| 83 (GLLENSPHL; listed as Homo sapiens) [compound 83] | ++ (≧20% = ++) |
| 72 (VLSTRVTNV; listed as Homo sapiens) [compound 72] | ++ (≧20% = ++) |
| 27 (GLLGKVTSV; listed as Homo sapiens) [compound 27] | +++ (≧50 = +++) |
| 91 (LLPSIFLMV; listed as Homo sapiens) [compound 91] | ++ (≧20% = ++) |
| 16 (SLADLSLLL; listed as Homo sapiens) [compound 16] | +++ (≧50 = +++) |
| 231 (LLDDIFIRL; listed as Homo sapiens) [compound 231] | +++ (≧50 = +++) |
| 182 (GLQDGFQITV; listed as Homo sapiens) [compound 182] | +++ (≧50 = +++) |

* * *

molecular target: HLA-A*02:01 (Homo sapiens, UniProt P04439, D140Y/D185E/D98H/E176V/E277Q/G131W/G231S/I119V/I121R/I166T/I218V/L300P/L318F/N151K/N90K/P208A/P217A/Q86G/Q94H/R138H/R169H/T345S); construct: made in house; experiment: MHC binding assay: UV-ligand exchange with β2m ELISA (peptide exchange yield); details: binding to HLA-A*02:01 evaluated by peptide exchange yield (UV-ligand exchange, β2m ELISA)

| SUBSTANCE | Peptide exchange |
| --- | --- |
| 71 (HMSGKLTNV; listed as Homo sapiens) [compound 71] | ++ (≧20% = ++) |
| 47 (GLNGFNVLL; listed as Homo sapiens) [compound 47] | +++ (≧50 = +++) |
| 96 (ALDTTRHEL; listed as Homo sapiens) [compound 96] | ++ (≧20% = ++) |
| 11 (LLDPKTIFL; listed as Homo sapiens) [compound 11] | +++ (≧50 = +++) |
| 184 (ALDSTIAHL; listed as Homo sapiens) [compound 184] | ++ (≧20% = ++) |
| 203 (FLFVDPELV; listed as Homo sapiens) [compound 203] | ++ (≧20% = ++) |
| 82 (ILAEEPIYIRV; listed as Homo sapiens) [compound 82] | +++ (≧50 = +++) |
| 216 (ALSTVTPRI; listed as Homo sapiens) [compound 216] | ++ (≧20% = ++) |
| 55 (HLFDKIIKI; listed as Homo sapiens) [compound 55] | +++ (≧50 = +++) |

* * *

target: HLA-A*02:01 (Homo sapiens, UniProt P04439, D140Y/D185E/D98H/E176V/E277Q/G131W/G231S/I119V/I121R/I166T/I218V/L300P/L318F/N151K/N90K/P208A/P217A/Q86G/Q94H/R138H/R169H/T345S); construct: made in house; assay: MHC binding assay: UV-ligand exchange with β2m ELISA (peptide exchange yield); conditions: binding to HLA-A*02:01 evaluated by peptide exchange yield (UV-ligand exchange, β2m ELISA)

| SUBSTANCE | Peptide exchange |
| --- | --- |
| 110 (QIQGQVSEV; listed as Homo sapiens) [compound 110] | ++ (≧20% = ++) |
| 207 (KLFETVEEL; listed as Homo sapiens) [compound 207] | +++ (≧50 = +++) |
| 281 (LLLESDPKVYSL; listed as Homo sapiens) [compound 281] | ++ (≧20% = ++) |
| 116 (ALLSSVAEA; listed as Homo sapiens) [compound 116] | ++ (≧20% = ++) |
| 273 (SLNKQIETV; listed as Homo sapiens) [compound 273] | ++ (≧20% = ++) |
| 245 (ALLEEEEGV; listed as Homo sapiens) [compound 245] | ++ (≧20% = ++) |
| 162 (GLLGNLLTSL; listed as Homo sapiens) [compound 162] | +++ (≧50 = +++) |
| 250 (LMQDSRLYL; listed as Homo sapiens) [compound 250] | +++ (≧50 = +++) |

* * *

Target: HLA-A*02:01 (Homo sapiens, UniProt P04439, D140Y/D185E/D98H/E176V/E277Q/G131W/G231S/I119V/I121R/I166T/I218V/L300P/L318F/N151K/N90K/P208A/P217A/Q86G/Q94H/R138H/R169H/T345S)
Construct: made in house
Test: MHC binding assay: UV-ligand exchange with β2m ELISA (peptide exchange yield)
Details: binding to HLA-A*02:01 evaluated by peptide exchange yield (UV-ligand exchange, β2m ELISA)
Text: Candidate peptides for T cell based therapies according to the present invention were further tested for their MHC binding capacity (affinity). The individual peptide-MHC complexes were produced by UV-ligand exchange, where a UV-sensitive peptide is cleaved upon UV-irradiation, and exchanged with the peptide of interest as analyzed. Only peptide candidates that can effectively bind and stabilize the peptide-receptive MHC molecules prevent dissociation of the MHC complexes. […]
EXPERIMENTAL_READOUT: Peptide exchange

| SUBSTANCE | MEASUREMENT |
| --- | --- |
| 275 (AVPPPPSSV; listed as Homo sapiens) [compound 275] | ++ (≧20% = ++) |
| 94 (YLDEVAFML; listed as Homo sapiens) [compound 94] | +++ (≧50 = +++) |
| 126 (QLREAFEQL; listed as Homo sapiens) [compound 126] | +++ (≧50 = +++) |
| 74 (GLAFLPASV; listed as Homo sapiens) [compound 74] | ++ (≧20% = ++) |
| 164 (MLIIRVPSV; listed as Homo sapiens) [compound 164] | +++ (≧50 = +++) |
| 111 (AQLEGKLVSI; listed as Homo sapiens) [compound 111] | +++ (≧50 = +++) |
| 187 (SILKEDPFL; listed as Homo sapiens) [compound 187] | ++ (≧20% = ++) |
| 263 (SIIEYLPTL; listed as Homo sapiens) [compound 263] | +++ (≧50 = +++) |
